Experiment: Solubility of PMIDA in water and HCl (saturation concentrations)
Assay type: physicochemical
Conditions: water, 37.8 °C, thermodynamic from solid, Atm., H2O, 100° F.
Description: In certain embodiments, the organic compound comprising a phosphonoalkyl moiety is at least partially solubilized in the organic or mineral acid. […]
metric name: solubility thermodynamic (mg/mL)
State the answer as a number, implicitly in mg/mL.

Looking for the measured solubility thermodynamic of O=C(O)CN(CC(=O)O)CP(=O)(O)O , can you help?
22.6

---

experiment: Solubility of PMIDA in water and HCl (saturation concentrations); assay type: physicochemical; conditions: water, 93.3 °C, thermodynamic from solid, Atm., H2O, 200° F.
metric name: solubility thermodynamic (mg/mL)
State the answer as a number, implicitly in mg/mL.

Looking for the measured solubility thermodynamic of O=C(O)CN(CC(=O)O)CP(=O)(O)O , can you help?
47.9
